Tested on: GR-ST (B-Lymphoblastic Leukemia)
Assay: combination Emax (second highest fraction inhibited in the dose matrix, 72 h); higher = more inhibition; extreme values may be limits of the assay
measured quantity: combination Emax

Query: // Input: CN(C)CCCOc1ccc(-c2ccc3ncc4c(c3c2)n(C2CCOCC2)c(=O)n4C)cn1 [AZD0156] + C=CCn1c(=O)c2cnc(Nc3ccc(N4CCN(C)CC4)cc3)nc2n1-c1cccc(C(C)(C)O)n1 [AZD1775] (first compound max 1 µM, partner max 1 µM) . Output its combination Emax only.
Result: 0.78

Query: Entry O=C(c1cc(Cc2n[nH]c(=O)c3ccccc23)ccc1F)N1CCN(C(=O)C2CC2)CC1 [Olaparib] + CN(CC[C@H](CSC1=CC=CC=C1)NC2=C(C=C(C=C2)S(=O)(=O)NC(=O)C3=CC=C(C=C3)N4CCC(CC4)[C@H](C5=CC=CC=C5C6=CC=C(C=C6)Cl)O)S(=O)(=O)C(F)(F)F)CCO [AZD4320] (first compound max 10 µM, 7x7, partner max 1 µM) needs its combination Emax filled in; supply it.
Result: 0.462

Query: Using known records, supply combination Emax for CC1(C)CCC(CN2CCN(c3ccc(C(=O)NS(=O)(=O)c4ccc(NCC5CCOCC5)c([N+](=O)[O-])c4)c(Oc4cnc5[nH]ccc5c4)c3)CC2)=C(c2ccc(Cl)cc2)C1 [Venetoclax] + C=CCn1c(=O)c2cnc(Nc3ccc(N4CCN(C)CC4)cc3)nc2n1-c1cccc(C(C)(C)O)n1 [AZD1775] (first compound max 1 µM, partner max 1 µM)
Result: 0.813

Query: Annotate the compound Cc1c2c(nn1C)CSCc1cc(n(C)n1)CSc1cc(c3ccccc3c1)OCCCc1c(C(=O)O)n(C)c3c-2c(Cl)ccc13 [AZD5991] + CN(C)CCCOc1ccc(-c2ccc3ncc4c(c3c2)n(C2CCOCC2)c(=O)n4C)cn1 [AZD0156] (first compound max 1 µM, 7x7, partner max 1 µM) with its measured combination Emax.
Result: 0.502

Query: Consider the compound COc1nnc2ccc(N3CCC(c4ccc(OCCN5CCN(C)C(=O)[C@H]5C)cc4)CC3)nn12 [AZD5153] + C[C@@H]1COCCN1C2=NC(=NC(=C2)C3(CC3)[S@](=N)(=O)C)C4=C5C=CNC5=NC=C4 [AZD6738] (first compound max 1 µM, 7x7, partner max 10 µM) and give its recorded combination Emax.
Result: 0.846

Query: Return value of combination Emax for input C=CCn1c(=O)c2cnc(Nc3ccc(N4CCN(C)CC4)cc3)nc2n1-c1cccc(C(C)(C)O)n1 [AZD1775] + C1CN(CCC1(C(=O)N[C@@H](CCO)C2=CC=C(C=C2)Cl)N)C3=NC=NC4=C3C=CN4 [Capivasertib] (first compound max 3 µM, partner max 3 µM) , no commentary.
Result: 0.818

Query: Identify measured combination Emax corresponding to CC(=O)c1c(C)c2cnc(Nc3ccc(N4CCNCC4)cn3)nc2n(C2CCCC2)c1=O [Palbociclib] + CC1(C)CCC(CN2CCN(c3ccc(C(=O)NS(=O)(=O)c4ccc(NCC5CCOCC5)c([N+](=O)[O-])c4)c(Oc4cnc5[nH]ccc5c4)c3)CC2)=C(c2ccc(Cl)cc2)C1 [Venetoclax] (first compound max 10 µM, 7x7, partner max 1 µM)
Result: 0.715
